Entry source: ChEMBL document CHEMBL2057196

target: Deoxyuridine 5'-triphosphate nucleotidohydrolase, mitochondrial (Homo sapiens); assay: Inhibition of human dUTPase assessed as production of [5-3H]dUMP from [5-3H]dUTP after 15 mins measured by HPLC analysis
Sequence (P33316 whole entry): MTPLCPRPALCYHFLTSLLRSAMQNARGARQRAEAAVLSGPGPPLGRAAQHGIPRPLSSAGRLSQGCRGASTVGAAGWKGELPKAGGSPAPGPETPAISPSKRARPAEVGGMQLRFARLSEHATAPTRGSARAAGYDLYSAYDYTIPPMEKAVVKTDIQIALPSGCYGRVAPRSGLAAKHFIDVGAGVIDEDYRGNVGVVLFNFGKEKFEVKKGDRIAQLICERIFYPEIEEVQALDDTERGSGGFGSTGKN
measurement-label: IC50 (µM)
Numeric only. Scale: µM

Consider the worked cases shown below.
> print(dat)
                            compound.string                              assay.system  measurement.label  assay.result
1  CC(C)(CCCOCn1ccc(=O)[nH]c1=O)NS(=O)(=O)c1ccc(Cl)cc1  Deoxyuridine 5'-triphosphate nucleotidohydrolase, mitochondrial (Homo sapiens)               IC50           5.7
2  CC(C)(CCCOCn1ccc(=O)[nH]c1=O)NS(=O)(=O)c1ccccc1Cl  Deoxyuridine 5'-triphosphate nucleotidohydrolase, mitochondrial (Homo sapiens)               IC50           9.4
3  CC(C)(CCCOCn1ccc(=O)[nH]c1=O)NS(=O)(=O)c1cccc(Cl)c1  Deoxyuridine 5'-triphosphate nucleotidohydrolase, mitochondrial (Homo sapiens)               IC50           4.5

# ---- query compound ----
Task item: Please supply the value of reported IC50 for the item `CC(C)(NS(=O)(=O)CCCOCn1ccc(=O)[nH]c1=O)c1cccc(OCC2CC2)c1`
Reply: 0.34

====

experiment: Antiproliferative activity against human HeLaS3 cells after 72 hrs by crystal violet assay; conditions: HeLa S3, 72 h
measurement-label: pIC50
By convention, pIC50 is the negative base-10 log of a molar concentration.

Task item: Please supply the value of reported pIC50 for the item `C[C@@H](NS(=O)(=O)CCCOCn1ccc(=O)[nH]c1=O)c1ccc(F)c(OCC2CC2)c1`
Reply: 4.55

====

experiment: Cmax in Balb/c-A mouse at 50 mg/kg, po in a solution containing 2.5% DMA, 2.5% Tween 80 and 10% cremophor EL; assay type: ADME, organism-based; design: dose 50 mg/kg, route oral; conditions: in vivo
measurement-label: Cmax (µM)
Numeric only. Scale: µM

Task item: Please supply the value of reported Cmax for the item `C[C@@H](NS(=O)(=O)CCCOCn1ccc(=O)[nH]c1=O)c1ccc(F)c(OCC2CC2)c1`
Reply: 15.1
